FYI, the data here is from paper PMC4137059.

study_target: T1, Mtw1-Nnf1 heterodimer (budding yeast, UniProt P39731;P47149)
T1 sequence 1: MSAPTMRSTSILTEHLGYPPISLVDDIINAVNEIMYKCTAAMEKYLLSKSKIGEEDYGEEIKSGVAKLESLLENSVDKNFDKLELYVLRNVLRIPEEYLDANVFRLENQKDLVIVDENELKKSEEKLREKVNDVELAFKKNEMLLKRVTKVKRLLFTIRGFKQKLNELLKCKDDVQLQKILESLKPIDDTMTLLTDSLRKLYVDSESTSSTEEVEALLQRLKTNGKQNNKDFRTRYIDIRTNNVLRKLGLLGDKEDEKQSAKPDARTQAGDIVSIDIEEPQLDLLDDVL
T1 sequence 2: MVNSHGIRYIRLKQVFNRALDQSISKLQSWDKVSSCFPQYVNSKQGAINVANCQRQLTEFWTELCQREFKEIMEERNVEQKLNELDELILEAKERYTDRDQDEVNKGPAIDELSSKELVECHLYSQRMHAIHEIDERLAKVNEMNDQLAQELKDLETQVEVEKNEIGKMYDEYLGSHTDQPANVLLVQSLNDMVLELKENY
assay: ITC
pKd: −log10 of the molar value. No end group written: not given here.
assay_readout: pKd

                                     binder  value_measured
0  {GST}-MDRDTKLAFRLRGSHSRRTDDIDDDVIVFK (domain or fragment) [GST-Ame1^1-30]            5.82
